# MEASUREMENT_PROTOCOL: Cytotoxicity in HeLa cells (ATP content, ATPlite kit)
# Format: cell-based
# TEST_SETTINGS: human, TOX HELA CC50
Each record here notes measured CC50 at 3 days.

See these solved cases before continuing.
COMPOUND_SMILES | CC50 at 3 days
COc1cc(C(=O)NC[C@](O)(c2cc(C(C)(C)NS(C)(=O)=O)c(F)c(-c3ccc(F)cc3)n2)C(F)(F)F)cc2cc(C)nnc12 | 51 µM
COc1cc(C(=O)NC[C@](O)(c2cc(C(C)(C)O)c(F)c(-c3ccc(F)cc3)n2)C(F)(F)F)cc2cc(C(F)(F)F)cnc12 | 13 µM

Moving on to the next compound.
Note to self: CC50 at 3 days recorded for `COc1cc(C(=O)NC[C@](O)(c2cc(C(C)(C)O)c(F)c(-c3ccc(F)cc3)n2)C(F)(F)F)cc2cc(C)nnc12` was 23 µM
